Origin of values: patent US20230072421A1

# Tested Target: PSMA-expressing LNCaP cells (Homo sapiens, UniProt Q04609)
# Construct: PSMA-expressing LNCaP cells; endogenous in cells; host or cells: LNCaP
# Sequence (Q04609 whole entry): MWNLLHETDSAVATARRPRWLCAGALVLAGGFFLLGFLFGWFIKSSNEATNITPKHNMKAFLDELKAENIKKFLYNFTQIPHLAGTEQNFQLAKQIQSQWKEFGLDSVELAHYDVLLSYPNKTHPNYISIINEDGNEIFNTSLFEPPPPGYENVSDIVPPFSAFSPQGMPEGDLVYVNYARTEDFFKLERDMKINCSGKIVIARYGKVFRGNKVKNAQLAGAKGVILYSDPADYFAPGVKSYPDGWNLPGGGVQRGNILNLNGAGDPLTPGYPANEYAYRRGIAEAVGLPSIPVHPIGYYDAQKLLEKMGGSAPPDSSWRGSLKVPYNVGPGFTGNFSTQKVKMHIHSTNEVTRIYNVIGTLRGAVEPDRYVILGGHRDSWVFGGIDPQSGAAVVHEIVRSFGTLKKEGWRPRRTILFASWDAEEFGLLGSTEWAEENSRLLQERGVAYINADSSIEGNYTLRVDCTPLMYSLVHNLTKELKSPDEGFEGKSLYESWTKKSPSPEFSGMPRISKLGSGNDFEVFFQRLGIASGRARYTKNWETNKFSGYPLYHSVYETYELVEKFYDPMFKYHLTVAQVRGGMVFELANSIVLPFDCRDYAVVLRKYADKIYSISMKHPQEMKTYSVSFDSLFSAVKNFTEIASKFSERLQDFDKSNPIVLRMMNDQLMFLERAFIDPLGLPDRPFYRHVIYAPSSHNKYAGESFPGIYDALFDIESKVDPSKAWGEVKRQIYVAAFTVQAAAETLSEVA
# Assay Overview: Internalization assay (membrane bound and internalized Th-227)
# Type: cell-based
# Protocol Conditions: 10 nM radiolabeled compound, Th-227 at 375 kBq/nmol; 2 h incubation; triplicates
Assay Metric: Internalized in LNCaP fmol/10^6 cells 2 h (fmol/10^6 cells)
// return numeric value only (unit: fmol/10^6 cells, not printed)

-- ask # lookup: Internalized in LNCaP fmol/10^6 cells 2 h of Cn1ccc2c(c1=O)[O][Th]13[O]c4c(ccn(C)c4=O)C(=O)NCCN(CCNC2=O)CC(Cc2ccc(NC(=O)CCC(=O)N[C@H](CCCNC(=N)N)C(=O)N[C@H](CCCNC(=N)N)C(=O)NC[C@H]4CC[C@H](C(=O)N[C@@H](Cc5ccc6ccccc6c5)C(=O)NCCCC[C@H](NC(=O)N[C@@H](CCC(=O)O)C(=O)O)C(=O)O)CC4)cc2)CN(CCNC(=O)c2ccn(C)c(=O)c2[O]1)CCNC(=O)c1ccn(C)c(=O)c1[O]3 (some centres unmarked) [Example 46-E-227Th]
-- reply 104

-- ask Can you handle Cc1cc2c(c(=O)n1CC(=O)O)[O][227Th]13[O]c4c(cc(C)n(CC(=O)O)c4=O)C(=O)NCCN(CCCN(CCNC2=O)CCNC(=O)c2cc(C)n(CC(=O)NCc4ccc(C(=O)N[C@@H](Cc5ccc6ccccc6n5)C(=O)NCCCC[C@H](NC(=O)N[C@@H](CCC(=O)O)C(=O)O)C(=O)O)nc4)c(=O)c2[O]1)CCNC(=O)c1cc(C)n(CC(=O)NCc2ccc(C(=O)N[C@@H](Cc4ccc5ccccc5n4)C(=O)NCCCC[C@H](NC(=O)N[C@@H](CCC(=O)O)C(=O)O)C(=O)O)nc2)c(=O)c1[O]3 [34-C dimer-227Th] next?
-- reply 299

====

Hi there, I'd appreciate the recorded Th-227 in kidney for every entry that follows.
# Assay Overview: Biodistribution study in LNCaP tumor-bearing mice (Th227 counted in organs)
# Assay type: in vivo, SCID mice
# Protocol Conditions: 24 h; 1500 kBq/kg
Report the value in % ID Th-227/g organ with no unit label.

-- ask Fill in the blank: the reported Th-227 in kidney of O=C([O-])CN1CCN(CC(=O)[O-])CCN(CC(=O)NCC2CCC(C(=O)NC(Cc3ccc4ccccc4c3)C(=O)NCCCCC(NC(=O)NC(CCC(=O)O)C(=O)O)C(=O)O)CC2)CCN(CC(=O)[O-])CC1.[227Th+4] (stereo not shown) [Example 1-B-227Th] is ____.
-- reply 11.30

-- ask Another molecule to check: O=C([O-])CN1CCN(CC(=O)[O-])CCN(CC(=O)NCC2CCC(C(=O)NC(Cc3ccc4ccccc4c3)C(=O)NCCCCC(NC(=O)NC(CCC(=O)O)C(=O)O)C(=O)O)CC2)CCN(CC(=O)[O-])CC1.[227Th+4] [Example 1-B-D-227Th]
-- reply 0.83

-- ask Another: O=C([O-])CN1CCN(CC(=O)[O-])CCN(CC(=O)NCc2ccc(C(=O)N[C@@H](Cc3ccc4ccccc4n3)C(=O)NCCCC[C@H](NC(=O)N[C@@H](CCC(=O)O)C(=O)O)C(=O)O)nc2)CCN(CC(=O)[O-])CC1.[227Th+4] [Example 34-B-227Th]
-- reply 21.02

-- ask Also Cc1cc(C(=O)NCCN(CCCN(CCNC(=O)c2cc(C)n(CC(=O)O)c(=O)c2[O-])CCNC(=O)c2cc(C)n(CC(=O)NCC3CCC(C(=O)NC(Cc4cnc5ccccc5c4)C(=O)NCCCCC(NC(=O)NC(CCC(=O)O)C(=O)O)C(=O)O)CC3)c(=O)c2[O-])CCNC(=O)c2cc(C)n(CC(=O)NCC3CCC(C(=O)NC(Cc4cnc5ccccc5c4)C(=O)NCCCCC(NC(=O)NC(CCC(=O)O)C(=O)O)C(=O)O)CC3)c(=O)c2[O-])c([O-])c(=O)n1CC(=O)O.[227Th+4] (stereo not shown) [Example 22-C dimer-227Th] , if possible.
-- reply 11.35
